test system: MCF7; assay: Anticancer activity against human MCF7 cells assessed as viable cells at 10 uM after 48 hrs by SRB assay relative to control; assay type: functional
EXPERIMENTAL_READOUT: fold change (FC)
Could you keep your reply to the number by itself?

For Cc1ccc(S(=O)(=O)NC2=C(C#N)C(c3ccc(Cl)cc3)c3sc(Nc4ccc(S(N)(=O)=O)cc4)nc3O2)cc1 (centres undefined) , what is its reported fold change (FC)?
0.92

Subsequent entry: CC(=O)N(C(C)=O)C1=C(C#N)C(c2ccc(Cl)cc2)c2sc(Nc3ccc(S(N)(=O)=O)cc3)nc2O1 (centres undefined)
0.913

Subsequent entry: Nc1ncnc2c1C(c1ccc(Cl)cc1)c1sc(Nc3ccc(S(N)(=O)=O)cc3)nc1O2 (centres undefined)
0.62

Subsequent entry: N#CC1=C(/N=C/c2ccccc2)Oc2nc(Nc3ccc(S(N)(=O)=O)cc3)sc2C1c1ccc(Cl)cc1 (centres undefined)
0.93

Subsequent entry: NS(=O)(=O)c1ccc(Nc2nc3c(s2)C(c2ccc(Cl)cc2)c2c(nc[nH]c2=O)O3)cc1 (centres undefined)
0.794

Subsequent entry: CC(=O)NC1=C(C#N)C(c2ccc(Cl)cc2)c2sc(Nc3ccc(S(N)(=O)=O)cc3)nc2O1 (centres undefined)
0.801

Subsequent entry: N#CC1=C(NS(=O)(=O)c2ccccc2)Oc2nc(Nc3ccc(S(N)(=O)=O)cc3)sc2C1c1ccc(Cl)cc1 (centres undefined)
0.697

Subsequent entry: N#CC1=C(N)Oc2nc(Nc3ccc(S(N)(=O)=O)cc3)sc2C1c1ccc(Cl)cc1 (centres undefined)
0.848

Subsequent entry: Nc1nc(=O)[nH]c2c1C(c1ccc(Cl)cc1)c1sc(Nc3ccc(S(N)(=O)=O)cc3)nc1O2 (centres undefined)
0.9

Subsequent entry: N#CC1=C(NC(=O)CCl)Oc2nc(Nc3ccc(S(N)(=O)=O)cc3)sc2C1c1ccc(Cl)cc1 (centres undefined)
0.702

Subsequent entry: N#CC1=C(/N=C/c2ccc(Cl)cc2)Oc2nc(Nc3ccc(S(N)(=O)=O)cc3)sc2C1c1ccc(Cl)cc1 (centres undefined)
0.634

Subsequent entry: NC(=O)C1=C(N)Oc2nc(Nc3ccc(S(N)(=O)=O)cc3)sc2C1c1ccc(Cl)cc1 (centres undefined)
0.815

Subsequent entry: Nc1nc(=S)[nH]c2c1C(c1ccc(Cl)cc1)c1sc(Nc3ccc(S(N)(=O)=O)cc3)nc1O2 (centres undefined)
0.814

Subsequent entry: N#CC1=C(NC(N)=O)Oc2nc(Nc3ccc(S(N)(=O)=O)cc3)sc2C1c1ccc(Cl)cc1 (centres undefined)
0.701
